System: MFM-223
assayRemarks: normalised viability (% of control), CellTiter-Blue; higher = more viable cells (about 100 = DMSO control)
condition: 10 nM; incubation time: 72 h
Task for the reader: assign each of the following compounds its reported normalised viability.

Dear colleague, I am looking for the recorded normalised viability of the following compound: Nc1nc2[nH]cnc2c(=S)[nH]1 [Thioguanine]
89.4%

For C[C@]1(O)C[C@@H](c2nc(-c3ccc4ccc(-c5ccccc5)nc4c3)c3c(N)nccn32)C1 [OSI-906] then?
98.3%

For CC1(C)CNc2cc(NC(=O)c3cccnc3NCc3ccncc3)ccc21 [Motesanib] then?
80.8%

For CC1=C2C[C@H]3[C@@H](CC=C4C[C@@H](O)CC[C@@]43C)[C@@H]2CC[C@]12O[C@@H]1C[C@H](C)CN[C@H]1[C@H]2C [Cyclopamine] then?
96%
